Reference source: the supplement of paper PMC12669032

Reported growth AUC values follow for various compounds
tested on: Lactobacillus gasseri; assay: growth AUC relative to DMSO control (median of replicates) (fraction); higher = more growth (less inhibition), active = hit call of the paper; conditions: 20 µM; 24 h
# output: bare number, no unit

Please look at this compound and report its growth AUC: Oc1ccc(Cl)cc1
0.968

###

test system: Bacteroides thetaiotaomicron; test: growth AUC relative to DMSO control (median of replicates) (fraction); higher = more growth (less inhibition), active = hit call of the paper; details: 20 µM; 24 h;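 active = AUC reduced over 20% with Padj below 0.05 in at least 2 of 3 replicates; inactive = otherwise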
Your response should consist of one outcome taken from label 1 for active, label 0 for inactive

Use these answered entries as a reference point.
Molecule | Label
CC(C)(C)c1cc([N+](=O)[O-])cc([N+](=O)[O-])c1O | label 0
CCc1nn(C)c(C(=O)NCc2ccc(C(C)(C)C)cc2)c1Cl | label 1
CCOP(=S)(OCC)SCS(=O)C(C)(C)C (stereo not given) | label 0
COC(=O)N(C(=O)N1CO[C@@]2(C(=O)OC)Cc3cc(Cl)ccc3C2=N1)c1ccc(OC(F)(F)F)cc1 | label 0
CC(C)N(C(=O)COc1nnc(C(F)(F)F)s1)c1ccc(F)cc1 | label 0

Status in this test for COC(=O)NCc1cc(/C(C)=N\OCc2cccc(C)n2)ccc1Cl ?
label 0

Status in this test for CCCCOC(=O)[C@@H](C)Oc1ccc(Oc2ccc(C#N)cc2F)cc1 ?
label 0

Status in this test for COc1cc(OC)nc(NC(=O)NS(=O)(=O)c2cc(NC=O)ccc2C(=O)N(C)C)n1 ?
label 0

Status in this test for COC(C)(C)CCCC(C)C/C=C/C(C)=C/C(=O)OC(C)C (stereo not given) ?
label 0

Status in this test for FC(F)C(F)(F)OCC(Cn1cncn1)c1ccc(Cl)cc1Cl (stereo not given) ?
label 0

###

test system: Akkermansia muciniphila; assay: growth AUC relative to DMSO control (median of replicates) (fraction); higher = more growth (less inhibition), active = hit call of the paper; conditions: 20 µM; 24 h
Experimental Readout: growth AUC

Some molecules with known growth AUC results, for comparison:
Molecule | System | growth AUC
COP(=S)(OC)Oc1ccc(SC)c(C)c1 | Akkermansia muciniphila | 0.903 (inactive)
O=S(=O)(c1ccccc1)c1ccccc1 | Akkermansia muciniphila | 0.901 (inactive)
CNC(=O)/C(=N\OC)c1ccccc1Oc1ccccc1 | Akkermansia muciniphila | 0.873 (inactive)
CNC(=O)Oc1cccc2c1OC(C)(C)C2=O | Akkermansia muciniphila | 1.05 (inactive)
O=S1OCC2C(CO1)C1(Cl)C(Cl)=C(Cl)C2(Cl)C1(Cl)Cl (stereo not drawn) | Akkermansia muciniphila | 1.08 (inactive)

Could you now look at the following molecule, please?
Please look at this molecule and report its growth AUC: CCC(C)c1ccccc1OC(=O)NC (stereo not drawn)
0.869 (inactive)

###

Reported growth AUC values follow for various compounds
tested on: Collinsella aerofaciens; test: growth AUC relative to DMSO control (median of replicates) (fraction); higher = more growth (less inhibition), active = hit call of the paper; details: 20 µM; 24 h

Compound | growth AUC
CCN(Cc1ccc(Cl)nc1)/C(=C/[N+](=O)[O-])NC | 0.976 (inactive)
COc1cnc(OC)n2nc(NS(=O)(=O)c3c(OCC(F)F)cccc3C(F)(F)F)nc12 | 0.991 (inactive)

Please look at this compound and report its growth AUC: N#CC(CCc1ccc(Cl)cc1)(Cn1cncn1)c1ccccc1 (stereo not given)
0.968 (inactive)

Please look at this compound and report its growth AUC: CNC(=O)Oc1cccc(N=CN(C)C)c1.Cl
1.04 (inactive)

Please look at this compound and report its growth AUC: CC(C)=CC1C(C(=O)OCN2C(=O)C3=C(CCCC3)C2=O)C1(C)C (stereo not given)
0.955 (inactive)

###

test system: Lactobacillus paracasei; assay: growth AUC relative to DMSO control (median of replicates) (fraction); higher = more growth (less inhibition), active = hit call of the paper; settings: 20 µM; 24 h
Experimental Readout: growth AUC
# output: bare number, no unit

Some compounds with known growth AUC results, for comparison:
Compound | Experimental Readout | Value
CN(C(=O)COc1nc2ccccc2s1)c1ccccc1 | growth AUC | 1.02
COc1ncc(F)c2nc(S(=O)(=O)Nc3c(F)cccc3F)nn12 | growth AUC | 1
COC(=O)COc1cc(Cl)c(Cl)cc1Cl | growth AUC | 1.11
Nc1c(Cl)c(Cl)c(Cl)c(Cl)c1Cl | growth AUC | 0.869
CCOC(=O)C(SP(=S)(OC)OC)c1ccccc1 (stereo not drawn) | growth AUC | 1.02
CCOP(=O)(OCC)OCC | growth AUC | 0.964

Please look at this compound and report its growth AUC: CCNc1nc(NC(C)C(C)C)nc(SC)n1 (stereo not drawn)
0.81

Please look at this compound and report its growth AUC: O=C(O)c1cc(Cl)ccc1Cl
0.934

Please look at this compound and report its growth AUC: CCCCCCCCCc1ccc(O)cc1
1.01

Please look at this compound and report its growth AUC: O=c1[nH]c(Cl)c(Cl)cc1Cl
0.984

Please look at this compound and report its growth AUC: COC(=O)N(C(=O)N1CO[C@@]2(C(=O)OC)Cc3cc(Cl)ccc3C2=N1)c1ccc(OC(F)(F)F)cc1
0.896

###

tested on: Bacteroides stercoris; assay: growth AUC relative to DMSO control (median of replicates) (fraction); higher = more growth (less inhibition), active = hit call of the paper; settings: 20 µM; 24 h
Reported growth AUC values follow for various molecules
# output: bare number, no unit

Some molecules with known growth AUC results, for comparison:
Molecule | growth AUC
Oc1ccc(-c2ccccc2)cc1 | 0.815
CCOP(=S)(OCC)Oc1cc(C)nc(N(CC)CC)n1 | 0.938
Oc1ccc(Cl)c(Cl)c1Cl | 1.15
Clc1cc(Cl)c(Cl)c(Cl)c1 | 0.887
CCCN(CCC)N=O | 1

Answer with growth AUC of CCN(CC)c1c([N+](=O)[O-])cc(C(F)(F)F)c(N)c1[N+](=O)[O-] measured for Bacteroides stercoris.
1.09

Answer with growth AUC of CCCOC(=O)c1ccccc1C(=O)OCCC measured for Bacteroides stercoris.
1.18

Answer with growth AUC of CC(Cc1ccc(C(C)(C)C)cc1)CN1C[C@@H](C)O[C@@H](C)C1 (stereo partly drawn) measured for Bacteroides stercoris.
1.07

Answer with growth AUC of ClC1=C(Cl)C2(Cl)[C@H]3[C@@H]4O[C@@H]4[C@H](Cl)[C@H]3C1(Cl)C2(Cl)Cl (single isomer, unassigned; isomer b) measured for Bacteroides stercoris.
0.752

Answer with growth AUC of C=C(C)[C@H]1Cc2c(ccc3c2O[C@@H]2COc4cc(OC)c(OC)cc4[C@@H]2C3=O)O1 measured for Bacteroides stercoris.
0.735

###

tested on: Escherichia coli ED1a; assay: growth AUC relative to DMSO control (median of replicates) (fraction); higher = more growth (less inhibition), active = hit call of the paper; conditions: 20 µM; 24 h
Experimental Readout: growth AUC
# output: bare number, no unit

Some compounds with known growth AUC results, for comparison:
Compound | Experimental Readout | Value
CC(Cc1ccc(C(C)(C)C)cc1)CN1C[C@@H](C)O[C@@H](C)C1 (stereo partly specified) | growth AUC | 1.01
Cn1cc(-c2ccccc2)c(=O)c(-c2cccc(C(F)(F)F)c2)c1 | growth AUC | 0.978
Oc1c(Br)cc(Br)cc1Br | growth AUC | 0.945
Nc1c([N+](=O)[O-])ccc(Oc2ccccc2)c1Cl | growth AUC | 1.01
COCC(=O)N(c1c(C)cccc1C)[C@H](C)C(=O)OC | growth AUC | 1.02

Could you now look at the following compound, please?
Please look at this compound and report its growth AUC: CCOP(=S)(OCC)SCCS(=O)CC (stereo unspecified)
0.985

###

system: Clostridium difficile; assay: growth AUC relative to DMSO control (median of replicates) (fraction); higher = more growth (less inhibition), active = hit call of the paper; conditions: 20 µM; 24 h
Quick rule: growth AUC of at least 1 means class 1, below that means class 0.

Compound | Label
O=c1ccc(=O)[nH][nH]1 | class 0
CS(=O)(=O)c1cc(C(F)(F)F)ccc1C(=O)c1cnoc1C1CC1 | class 1
COCC(=O)N(c1c(C)cccc1C)C(C)C(=O)OC (centres undefined) | class 1
CC(C)(C)c1ccc(CSc2cnn(C(C)(C)C)c(=O)c2Cl)cc1 | class 0

Exam item: decide whether the reported growth AUC for CCOP(=O)(OCC)Oc1ccc([N+](=O)[O-])cc1 is at least 1.
class 1

Exam item: decide whether the reported growth AUC for COCC(=O)N(c1c(C)cccc1C)[C@@H](C)C(=O)OC is at least 1.
class 1

Exam item: decide whether the reported growth AUC for c1nc[n]([Sn]([CH]2CCCCC2)([CH]2CCCCC2)[CH]2CCCCC2)n1 is at least 1.
class 0

Exam item: decide whether the reported growth AUC for CON(C)C(=O)Nc1ccc(Br)cc1 is at least 1.
class 0
